molecular target: GPR139 (Homo sapiens, UniProt Q6DWJ6); assay: GPR139 Agonist titration / agonist counterscreen assay (calcium detection, HEK-GPR139 cells); format: cell-based; set-up: expressed in transfected cells; host or cells: HEK Aequorin cells, Maxcyte transient transfection; conditions: GPR139 Agonist Activity
Sequence (Q6DWJ6 whole entry): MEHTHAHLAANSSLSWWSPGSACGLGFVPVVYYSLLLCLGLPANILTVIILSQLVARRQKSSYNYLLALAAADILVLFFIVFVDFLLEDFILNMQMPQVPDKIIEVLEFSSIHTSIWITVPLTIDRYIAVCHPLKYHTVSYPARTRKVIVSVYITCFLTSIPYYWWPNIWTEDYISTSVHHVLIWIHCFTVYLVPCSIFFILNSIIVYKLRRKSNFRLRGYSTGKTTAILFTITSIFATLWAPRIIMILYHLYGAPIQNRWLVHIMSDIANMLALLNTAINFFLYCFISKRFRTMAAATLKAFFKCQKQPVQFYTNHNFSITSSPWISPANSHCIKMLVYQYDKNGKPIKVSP
Items are presented alongside their recorded Lipophilic Efficiency (logD).
Could you respond with only the numeric value?

[
  {
    "COMPOUND": "CCOC(=O)C1C2C=CC3(CN(C(C)c4ccc(Br)cc4)C(=O)C13)O2 (stereo not drawn)",
    "Lipophilic Efficiency (logD)": 3.50
  },
  {
    "COMPOUND": "CCN(Cc1ccccc1)C(=O)Cn1cnc2sc(O)c(C)c2c1=O",
    "Lipophilic Efficiency (logD)": 3.11
  },
  {
    "COMPOUND": "CCCCCCC(=O)NNC(=O)c1c(O)c2ccccc2n(CCC)c1=O",
    "Lipophilic Efficiency (logD)": 4.95
  },
  {
    "COMPOUND": "CC(CCc1ccccc1)NC(=O)Cn1ncc2c1-c1ccccc1OC2 (stereo not drawn)",
    "Lipophilic Efficiency (logD)": 2.73
  },
  {
    "COMPOUND": "O=C(Nc1ccc(-c2c[nH]cn2)cc1)C1COc2ccc(F)cc2C1 (stereo not drawn)",
    "Lipophilic Efficiency (logD)": 3.12
  },
  {
    "COMPOUND": "CCOC(=O)c1cccc(NC(=O)Cc2cccc3ccccc23)c1",
    "Lipophilic Efficiency (logD)": 1.49
  },
  {
    "COMPOUND": "CCCC1(CCC)NC(=O)N(CC(=O)NCc2ccc(Cl)cc2)C1=O",
    "Lipophilic Efficiency (logD)": 3.46
  },
  {
    "COMPOUND": "COc1cc(C(=O)NNC(=O)COc2ccc3ccccc3c2)cc(OC)c1OC",
    "Lipophilic Efficiency (logD)": 4.08
  }
]

Below: the item to evaluate.
[in] Consider the compound CCCc1nn(CC(=O)NCc2nc3ccccc3n2C)c(=O)c2cc3ccsc3n12 tested on GPR139 (Homo sapiens, UniProt Q6DWJ6); state its Lipophilic Efficiency (logD).
[out] 3.33
